Test target: human PHD2 (PHD2181-417) (Homo sapiens)
Construct: Smt (SUMO) tag (cleaved yes); made in house; host or cells: E. coli BL21 (pBAD vector)
Sequence (Q9GZT9 181-417): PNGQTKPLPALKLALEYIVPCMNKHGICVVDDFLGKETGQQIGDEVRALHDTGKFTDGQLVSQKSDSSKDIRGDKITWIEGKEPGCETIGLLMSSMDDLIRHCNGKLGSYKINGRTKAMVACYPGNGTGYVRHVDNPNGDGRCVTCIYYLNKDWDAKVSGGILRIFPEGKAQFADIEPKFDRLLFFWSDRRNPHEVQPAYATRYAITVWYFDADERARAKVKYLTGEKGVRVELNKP
Measurement notes: PHD enzymatic assay ([14C]-succinic acid production)
Type: biochemical
Recorded conditions: PHD2181-417, HIF-1α peptide 10 μM, average of results; read-out: Enzyme pIC50 (converted)
Outcome measure: IC50
Output should be the measured figure followed by the unit it is expressed in.

- Molecule: "O=C(O)c1cnn(-c2nc3ccc(-c4cccc5c4OCCO5)cc3c(=O)[nH]2)c1"
  IC50: "15.8 nM"
- Molecule: "CN1CCN(c2ccc3nc(-n4cc(C(=O)O)cn4)[nH]c(=O)c3c2)CC1"
  IC50: "63.1 nM"
- Molecule: "O=C(O)c1cnn(-c2nc3ccc(Oc4ccc(F)cc4)cc3c(=O)[nH]2)c1"
  IC50: "25.1 nM"

Query molecule follows.
What measured IC50 is associated with O=C(O)c1cnn(-c2nc3cc(Cl)c(SC(F)(F)F)cc3c(=O)[nH]2)c1 on human PHD2 (PHD2181-417) (Homo sapiens)? 25.1 nM
